Each item that follows carries a reported half-life.
# assay-info: Metabolic stability in dog hepatocytes
# Format: ADME, cell-based, Canis lupus familiaris, Hepatocyte

[[record]]
sample_smiles = "Cc1ccc(C#Cc2cccc(-c3nn(-c4nc(C(=O)O)cs4)c(CC4CC4)c3Cc3ccc(S(N)(=O)=O)c(F)c3)c2)s1"
property_name = "half-life"
assay_value = "> 2.5 h"


Kindly review the next compound as well.
Need half-life, item Cc1ccc(C#Cc2cc(-c3nn(-c4nc(C(=O)O)cs4)c(CC4CC4)c3Cc3ccc(S(N)(=O)=O)c(F)c3)ccc2F)s1
> 2.5 h

* * *

# target-entity: L-lactate dehydrogenase A chain (Homo sapiens, UniProt P00338)
# assay-info: Inhibition of LDHA in human MIA PaCa-2 cells assessed as decrease in lactate production incubated for 2 hrs by lactate oxidase-coupled fluorescence based assay
# Format: cell-based
property-name: IC50 (µM)
Express the result in µM but write the number alone.

Illustrative cases are given below, each with its answer.
[[record]]
sample_smiles = "CCCCC#Cc1cc(-c2nn(-c3nc(C(=O)O)cs3)c(CC3CC3)c2Cc2ccc(S(N)(=O)=O)c(F)c2)ccc1F"
assay_value = 0.298

[[record]]
sample_smiles = "CC(C)CC#Cc1cc(-c2nn(-c3nc(C(=O)O)cs3)c(CC3CC3)c2Cc2ccc(S(N)(=O)=O)c(F)c2)ccc1F"
assay_value = 0.487

[[record]]
sample_smiles = "NS(=O)(=O)c1ccc(Cc2c(-c3cccc(C#Cc4ccc(C(F)F)s4)c3)nn(-c3nc(C(=O)O)cs3)c2CC2CC2)cc1F"
assay_value = 0.286

[[record]]
sample_smiles = "CC(C)(C)/C=C/c1cc(-c2nn(-c3nc(C(=O)O)cs3)c(CC3CC3)c2Cc2ccc(S(N)(=O)=O)c(F)c2)ccc1F"
assay_value = 0.255

[[record]]
sample_smiles = "NS(=O)(=O)c1ccc(Cc2c(-c3ccc(F)c(C#CCC4CC4)c3)nn(-c3nc(C(=O)O)cs3)c2CC2CC2)cc1F"
assay_value = 0.259


Need IC50, item C#Cc1cc(-c2nn(-c3nc(C(=O)O)cs3)c(CC3CC3)c2Cc2ccc(S(N)(=O)=O)c(F)c2)ccc1F
0.66

Need IC50, item NS(=O)(=O)c1ccc(Cc2c(-c3ccc(F)c(C#CCN4CCCC4)c3)nn(-c3nc(C(=O)O)cs3)c2CC2CC2)cc1F
1.01

* * *

Each item that follows carries a reported log10 AUClast.
# assay-info: AUClast in CD-1 mouse at 50 mg/kg, po and measured up to 24 hrs by LC/MS-MS analysis
# Assay type: ADME, organism-based
# Set-up: route oral, dose 50 mg/kg, time <=24
# recorded-conditions: in vivo
Hi team, quick reminder: these entries are log10 of AUClast (ng·h/mL).

Illustrative cases are given below, each with its answer.
[[record]]
sample_smiles = "Cc1ccc(C#Cc2cc(-c3nn(-c4nc(C(=O)O)cs4)c(CC4CC4)c3Cc3ccc(S(N)(=O)=O)c(F)c3)ccc2F)o1"
assay_value = 4.13

[[record]]
sample_smiles = "Cc1ncc(C#Cc2cc(-c3nn(-c4nc(C(=O)O)cs4)c(CC4CC4)c3Cc3ccc(S(N)(=O)=O)c(F)c3)ccc2F)s1"
assay_value = 3.54


Need log10 AUClast, item Cc1ccc(C#Cc2cccc(-c3nn(-c4nc(C(=O)O)cs4)c(CCC4CC4)c3Cc3ccc(S(N)(=O)=O)c(F)c3)c2)s1
4.30

Need log10 AUClast, item Cc1cnc(C#Cc2cc(-c3nn(-c4nc(C(=O)O)cs4)c(CC4CC4)c3Cc3ccc(S(N)(=O)=O)c(F)c3)ccc2F)s1
3.42

Need log10 AUClast, item Cc1ccc(C#Cc2cccc(-c3nn(-c4nc(C(=O)O)cs4)c(CC4CC4)c3Cc3ccc(S(N)(=O)=O)c(F)c3)c2)o1
4.01

Need log10 AUClast, item Cc1ccc(C#Cc2cccc(-c3nn(-c4nc(C(=O)O)cs4)c(CC4CC4)c3Cc3ccc(S(N)(=O)=O)c(F)c3)c2)s1
4.73

Need log10 AUClast, item Cc1ccc(C#Cc2cc(-c3nn(-c4nc(C(=O)O)cs4)c(CCC4CC4)c3Cc3ccc(S(N)(=O)=O)c(F)c3)ccc2F)s1
4.09

Need log10 AUClast, item NS(=O)(=O)c1ccc(Cc2c(-c3ccc(F)c(/C=C/C4CCCC4)c3)nn(-c3nc(C(=O)O)cs3)c2CC2CC2)cc1F
3.96

* * *

# assay-info: Volume of distribution at steady state in CD-1 mouse at 10 mg/kg, iv and measured up to 24 hrs by LC/MS-MS analysis
# Assay type: ADME, organism-based
# recorded-conditions: in vivo
property-name: log10(Vdss) (log10 of the value in L/kg)
Hi team, quick reminder: these entries are log10 of Vdss (L/kg).

Illustrative cases are given below, each with its answer.
[[record]]
sample_smiles = "Cc1ccc(C#Cc2cc(-c3nn(-c4nc(C(=O)O)cs4)c(CC4CC4)c3Cc3ccc(S(N)(=O)=O)c(F)c3)ccc2F)s1"
assay_value = 0.25

[[record]]
sample_smiles = "Cc1ccc(C#Cc2cc(-c3nn(-c4nc(C(=O)O)cs4)c(CCC4CC4)c3Cc3ccc(S(N)(=O)=O)c(F)c3)ccc2F)s1"
assay_value = 0.40

[[record]]
sample_smiles = "Cc1ccc(C#Cc2cccc(-c3nn(-c4nc(C(=O)O)cs4)c(CC4CC4)c3Cc3ccc(S(N)(=O)=O)c(F)c3)c2)o1"
assay_value = 1.10

[[record]]
sample_smiles = "NS(=O)(=O)c1ccc(Cc2c(-c3ccc(F)c(/C=C/C4CCCC4)c3)nn(-c3nc(C(=O)O)cs3)c2CC2CC2)cc1F"
assay_value = 1.12

[[record]]
sample_smiles = "Cc1ccc(C#Cc2cccc(-c3nn(-c4nc(C(=O)O)cs4)c(CCC4CC4)c3Cc3ccc(S(N)(=O)=O)c(F)c3)c2)s1"
assay_value = 0.17


Kindly review the next compound as well.
Need log10(Vdss), item Cc1ncc(C#Cc2cc(-c3nn(-c4nc(C(=O)O)cs4)c(CC4CC4)c3Cc3ccc(S(N)(=O)=O)c(F)c3)ccc2F)s1
1.14

* * *

# assay-info: Terminal half life in CD-1 mouse at 10 mg/kg, iv and measured up to 24 hrs by LC/MS-MS analysis
# Type: ADME, organism-based
# recorded-conditions: in vivo
Each item that follows carries a reported beta t1/2.

Illustrative cases are given below, each with its answer.
[[record]]
sample_smiles = "Cc1ccc(C#Cc2cc(-c3nn(-c4nc(C(=O)O)cs4)c(CC4CC4)c3Cc3ccc(S(N)(=O)=O)c(F)c3)ccc2F)o1"
property_name = "beta t1/2"
assay_value = "5.1 h"

[[record]]
sample_smiles = "Cc1ccc(C#Cc2cc(-c3nn(-c4nc(C(=O)O)cs4)c(CC4CC4)c3Cc3ccc(S(N)(=O)=O)c(F)c3)ccc2F)s1"
property_name = "beta t1/2"
assay_value = "5.2 h"

[[record]]
sample_smiles = "Cc1ncc(C#Cc2cc(-c3nn(-c4nc(C(=O)O)cs4)c(CC4CC4)c3Cc3ccc(S(N)(=O)=O)c(F)c3)ccc2F)s1"
property_name = "beta t1/2"
assay_value = "5.75 h"

[[record]]
sample_smiles = "NS(=O)(=O)c1ccc(Cc2c(-c3cccc(-c4ccccc4)c3)nn(-c3nc(C(=O)O)cs3)c2CC2CC2)cc1"
property_name = "beta t1/2"
assay_value = "0.85 h"


Need beta t1/2, item Cc1cnc(C#Cc2cc(-c3nn(-c4nc(C(=O)O)cs4)c(CC4CC4)c3Cc3ccc(S(N)(=O)=O)c(F)c3)ccc2F)s1
4.9 h

Need beta t1/2, item Cc1ccc(C#Cc2cccc(-c3nn(-c4nc(C(=O)O)cs4)c(CC4CC4)c3Cc3ccc(S(N)(=O)=O)c(F)c3)c2)s1
5.3 h

Need beta t1/2, item Cc1ccc(C#Cc2cccc(-c3nn(-c4nc(C(=O)O)cs4)c(CCC4CC4)c3Cc3ccc(S(N)(=O)=O)c(F)c3)c2)s1
5.8 h

* * *

# Tested on: MIA PaCa-2
# assay-info: Cytotoxicity against human MIA PaCa-2 cells assessed as reduction in cell viability after 48 hrs by CellTiter-Glo assay
# Type: functional, cell-based
# recorded-conditions: MIA PaCa-2, 48 h
Each item that follows carries a reported IC50.
Please answer in the form of a number followed by its unit of measurement.

Illustrative cases are given below, each with its answer.
[[record]]
sample_smiles = "NS(=O)(=O)c1ccc(Cc2c(-c3ccc(F)c(C#CC4CCNCC4)c3)nn(-c3nc(C(=O)O)cs3)c2CC2CC2)cc1F"
property_name = "IC50"
assay_value = "17300 nM"

[[record]]
sample_smiles = "Cc1ncc(C#Cc2cccc(-c3nn(-c4nc(C(=O)O)cs4)c(CCC4CC4)c3Cc3ccc(S(N)(=O)=O)c(F)c3)c2)s1"
property_name = "IC50"
assay_value = "218 nM"

[[record]]
sample_smiles = "NS(=O)(=O)c1ccc(Cc2c(-c3cccc(-c4ccccc4)c3)nn(-c3nc(C(=O)O)cs3)c2CC2CC2)cc1F"
property_name = "IC50"
assay_value = "3380 nM"


Kindly review the next compound as well.
Need IC50, item NS(=O)(=O)c1ccc(Cc2c(-c3ccc(F)c(C#CC4CC4)c3)nn(-c3nc(C(=O)O)cs3)c2CC2CC2)cc1F
323 nM
